Experiment: Half life in Sprague-Dawley rat at 3 mg/kg, po or 1 mg/kg, iv measured up to 24 hrs
Type: ADME, organism-based
Details: in vivo
MEASURE: half-life (h)
State the answer as a number, implicitly in h.

The compound listed as CN1C[C@@H]2CC[C@H](C1=O)N2c1ncc2[nH]nc(-c3cnn(C4CCC4)c3)c2n1 shows half-life equal to 6.6
